test system: DU-145 prostate
Field 'call' accepts 1 = active, -1 = inactive

These recorded examples may help you get a feel for the data.
CCCc1cc2cc(-n3nc(C)c4c3CC(C)(C)CC4=O)cc(NC3CCC(O)CC3)c2c(=O)[nH]1 (stereo not given); 1
O=C(Nc1ccccc1)Nc1cccc(-n2cc(-c3ccncc3)c(-c3ccc(O)c(Cl)c3)n2)c1; -1
CCOC(=O)/C(=C/c1ccc([N+](=O)[O-])cc1)C(=O)c1ccccc1; -1
c1cc(OCCN2CCCCCC2)ccc1CNc1ccc2nc(CCC3CCCCC3)[nH]c2c1; -1

INPUT: Name the outcome recorded for `C/C(CC(=O)NNc1ccc([N+](=O)[O-])cc1)=N\Nc1ccc([N+](=O)[O-])cc1` in the assay.
OUTPUT: -1
